test: yeast display, Sf9 membrane polyspecificity reagent, FACS + sequencing; frameworks hold sequencing errors
Measured attribute: polyreactivity (PSR sort gate)

{"Residue string": "QVQLVESGGGLVQAGGSLRLSCADSGSGGYAMGWYRQAPGKERELVAAIDNGGSTYYADSVKGRFTISRDNAKNTVYLQMNSLKPEDTAVYYCAAAYRDYTQVTAGDYWGQGTQVTVSS", "Result": "low polyreactivity"}
{"Residue string": "QVQLVESGGGLVQAGGSLSLSCAASGLTFANYVMGWYRQEPGKERELVAAISRSGGSTYYADSVKGRFTISRDNAKNTVYLQMNSLKPEDPAVYYCAAAAWDPKGSRYDYWGQGPQVTVSS", "Result": "low polyreactivity"}
{"Residue string": "QVQLVESGGGLVQAGGSLRLSCAASGSTFSDYAMGWYRPAPGKERELVAAISSDGSTYYADSVKGRFTISRDNANNTVYLQMNILKPEDTAVYYCAKDVILVWPYATGRDYCGQGTQVTVSS", "Result": "low polyreactivity"}
